// provenance: patent US20260297060A1

# assay.procedure: Example 8 pharmacokinetics assay for PKPD study (plasma, tumor, liver)
# Type: in vivo, BALB/c nude mice
# run.parameters: mouse, plasma, po, 35 mg/kg, p.o., single dose; 12 h; read-out: Concentration in Plasma (mean ± SEM)
endpoint: concentration at 12 h

So what does the record say about concentration at 12 h for COC(=O)N[C@@H](C)CNc1nccc(-c2cn(C(C)C)nc2-c2cc(Cl)cc(NS(C)(=O)=O)c2F)n1 [Encorafenib, encorafenib, reference compound] ?
11.3 ng/mL

* * *

# assay.procedure: Example 9 pharmacokinetics assay for the PK and PD study Part I, II and III (plasma, tumor, liver)
# Assay type: in vivo, BALB/c nude mice
# run.parameters: mouse, plasma, po; 100 mg/kg, p.o., single dose; 1 h; ± SEM; read-out: Mean Concentration in Plasma
endpoint: concentration at 1 h
State the value, then name its unit.

So what does the record say about concentration at 1 h for CC(C)(C)c1nc(-c2cccc(NS(=O)(=O)c3c(F)cccc3F)c2F)c(-c2ccnc(N)n2)s1 [Dabrafenib, dabrafenib, reference compound] ?
5920 ng/mL
